All figures here come from PubChem BioAssay.

experiment-notes: modulators of HCV replicon luciferase signal, primary screen, HCV replication inhibitor project, Huh7 cells, luciferase reporter (AID 1109);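 also: huh7 hepatoma cells harbouring a luciferase neomycin HCV replicon reporter; luciferase luminescence as measure of HCV replicon replication; test concentration not given here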
test-parameters: 48 h, higher = more signal
z-score reference
Note: the reply should be a number with no unit written.

Completed entries (count: 2):
compound=CCCNC(=O)[C@@]1(Sc2ccc(C)cc2)CC(=O)N(C2CCCCC2)[C@@H]1c1ccc(CO)cc1I numeric_readout=-2.45
compound=C=C(/C(=C/C[C@H](OC(=O)c1ccncc1)c1cccc(OCCO)c1)c1cnc2ccccc2c1)C(C)C numeric_readout=-4.47

Query: z-score; subject: `COC(=O)c1c2oc(c1C(=O)OC)C(=O)N1CCC[C@H]1Cn1nncc1CN(Cc1ccccc1)C(=O)N[C@H](CO)CC2`
0.253

###

System: Plasmodium falciparum Sir2 (PF13_0152, Sir2A)
experiment-notes: pfSir2 binders on small-molecule microarrays, primary screen, biochemical, small-molecule microarray, 635 nm fluorescence (AID 1098);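 also: score merges spot fluorescence intensity with its signal-to-noise ratio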
test-parameters: small-molecule microarray binding, fluorescence 635 nm; higher = more signal
measure: composite z-score
Note: the reply should be a number with no unit written.

compound=COc1ccc([Si](C)(C)[C@H]2[C@H](CC(=O)N3CCC[C@H]3CO)O[C@@]3(C(=O)N(Cc4ccc(N5CCC5=O)cc4)c4ccccc43)[C@@H]2C)cc1 subject_of_test="Plasmodium falciparum Sir2 (PF13_0152, Sir2A)" measure="composite z-score" numeric_readout=1.49

Query: composite z-score; subject: `CCCC=C(CCC)[C@@H](NS(=O)(=O)c1cccc2cccnc12)c1ccc(-c2ccccc2)cc1`
0.757

Moving on to the next compound: `[N-]=[N+]=Nc1ccccc1C[C@]1(C(=O)O)N=C(c2ccc(OCCCO)cc2)O[C@H]1c1ccccc1N=[N+]=[N-]`
0.944

Moving on to the next compound: `C=C[C@@H](C)[C@@H](OC(=O)Nc1ccc(SC)cc1)c1ccc(OCCO)cc1`
1.4

Moving on to the next compound: CN1C(=O)C2C=CC(C(O)c3cc(C(F)(F)F)cc(C(F)(F)F)c3)N(NC(=O)OC(C)(C)C)C2C1=O (centres undefined)
0.733

Moving on to the next compound: `COC(=O)[C@@]1(Cc2ccccc2CN=[N+]=[N-])N=C(c2ccc(OCCCO)cc2)O[C@H]1c1ccccc1`
1.13

Moving on to the next compound: `CO[C@H]1O[C@H](CO)[C@@H](OC(=O)CCc2ccccc2)[C@H](OC(=O)c2cc3ccccc3[nH]2)[C@H]1OC(=O)c1cc2ccccc2[nH]1`
0.757

Moving on to the next compound: `COCCOC(=O)N1C(=O)[C@@]2(c3cc(C#CC4(O)CCCCCC4)ccc31)[C@H](C(=O)N1CCN(c3ncccn3)CC1)[C@H]1C(=O)O[C@H](c3ccccc3)[C@H](c3ccccc3)N1[C@@H]2c1ccccc1OCCO`
1.27

Moving on to the next compound: `O=C(O)[C@@H]1C[C@@H]2C(=O)N3CCC[C@H]3C(=O)N2[C@@H]1c1cccc(OCCO)c1`
2.07

###

composite z-score reference
Tested on: PRMT1 (protein arginine N-methyltransferase 1)
experiment-notes: PRMT1 binders on small-molecule microarrays, primary screen, biochemical, small-molecule microarray, 635 nm fluorescence (AID 1088);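 also: binding of Prmt1 protein to compounds spotted on small-molecule microarray slides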
test-parameters: small-molecule microarray binding, higher = more signal
Note: the reply should be a number with no unit written.

molecule=CN(C)C(=O)[C@@]1(Cc2ccccc2N=[N+]=[N-])N=C(c2ccc(OCCCO)cc2)O[C@H]1c1ccccc1 measure="composite z-score" numeric_readout=1.57
molecule=CC(=O)NCCCC[C@@H]1NC(=O)[C@H]2C[C@@H](C(=O)NCCCCCNC(=O)CS)[C@@H](c3cccc(OCCO)c3)N2C1=O measure="composite z-score" numeric_readout=0.896
molecule=COCC(=C=CC[C@H](O)c1cccc(OCCO)c1)C[C@H](O)COCc1ccccc1 measure="composite z-score" numeric_readout=0.949
molecule="CC(C)c1ccc(NN2C(C(O)Cc3ccccc3)C=CC3C(=O)N(c4ccccc4)C(=O)C32)cc1 (configuration not stated)" measure="composite z-score" numeric_readout=1.48

Query: composite z-score; subject: `Cc1ccc(S[C@]2(C(=O)NCC(C)C)CC(=O)N(C3Cc4ccccc4C3)[C@@H]2c2ccc(CO)cc2I)cc1`
-0.409

Moving on to the next molecule: `COCCOC(=O)N1C(=O)[C@@]2(c3cc(C#CC4=CCCCC4)ccc31)[C@H](c1ccc(O)cc1)N1[C@H](c3ccccc3)[C@H](c3ccccc3)OC(=O)[C@H]1[C@@H]2C(=O)NC[C@H](O)c1ccccc1`
1.56

Moving on to the next molecule: COC(=O)C1N=C(c2ccc(OCCCO)cc2)N(c2ccccc2)O1 (configuration not stated)
0.433

###

subject-of-test: Torsin-1A (Homo sapiens)
experiment-notes: torsin A binders from cell lysate, primary screen, small-molecule microarray, wild-type, 635/667 nm (AID 1149)
test-parameters: COS7 hTOR1A-WT lysate, 635 nm fluorescence, higher = more signal
Class boundaries, taken from values of composite z-score, are as follows: c1: < 0.2; c2: ≥ 0.2 and < 1; c3: ≥ 1

molecule=O=C1C[C@@](C(=O)NCC(F)(F)F)(c2ccc([N+](=O)[O-])cc2)[C@@H](c2ccc(CO)cc2)N1CC12CC3CC(CC(C3)C1)C2 subject_of_test="Torsin-1A (Homo sapiens)" category_label=c2
molecule=COCCOC(=O)N1C(=O)[C@@]2(c3cc(C#Cc4ccc(OC)cc4)ccc31)[C@H](c1ccc(OCCO)cc1)N1[C@H](c3ccccc3)[C@H](c3ccccc3)OC(=O)[C@H]1[C@@H]2C(=O)Nc1nc2ccccc2s1 subject_of_test="Torsin-1A (Homo sapiens)" category_label=c2
molecule=COc1cc2c(cc1OC)CN(C(=O)[C@@H]1[C@H]3C(=O)O[C@H](c4ccccc4)[C@H](c4ccccc4)N3[C@H](c3ccc(O)cc3)[C@@]13C(=O)Nc1ccc(C#CCCO)cc13)CC2 subject_of_test="Torsin-1A (Homo sapiens)" category_label=c1
molecule=C=C/C=C/[C@@H]1C(=C)CN([C@@H](Cc2ccccc2)C(=O)OC)[C@H]1[C@@H](O)Cc1ccccc1 subject_of_test="Torsin-1A (Homo sapiens)" category_label=c2

In the following, a different molecule is considered.
Categorize the following entry: `COC(=O)[C@@]1(Cc2ccc(OC)cc2)[C@H]2c3cc(C(=O)N4CCCC4)n(Cc4ccc(S(C)(=O)=O)cc4)c3C[C@H]2CN1C(=O)c1ccccc1`
c2

###

experiment-notes: small-molecule binders of probe aNOTCH3, primary screen, biochemical, small-molecule microarray, 635/667 nm fluorescence (AID 1120);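 also: probe is a biotin-tagged antibody raised against NOTCH3 rather than NOTCH3 protein; score merges spot fluorescence near 667 nm with spot signal to noise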
test-parameters: higher = more signal
Class boundaries, taken from values of composite z-score, are as follows: class A = under -0.09, class B = from -0.09 up to 0.3, class C = 0.3 and over

molecule=COCCOC(=O)N1C(=O)[C@@]2(c3cc(C#CCCO)ccc31)[C@H](c1ccccc1OCCO)N1[C@H](c3ccccc3)[C@H](c3ccccc3)OC(=O)[C@H]1[C@@H]2C(=O)N1CCCCCCC1 category_label="class C"

Categorize the following entry: `O=C(CS)NCCCCCNC(=O)[C@@H]1C[C@@H]2C(=O)N[C@@H](Cc3ccccc3)C(=O)N2[C@@H]1c1cccc(OCCO)c1`
class A

Moving on to the next molecule: `Cc1ccc(S[C@]2(C(=O)NC(C)C)CC(=O)N(C(C)C)[C@@H]2c2ccc(CO)cc2I)cc1`
class B

Moving on to the next molecule: `NCCCCCNC(=O)[C@@H]1C[C@@H]2C(=O)N3CCC[C@H]3C(=O)N2[C@@H]1c1ccc(O)cc1`
class B

###

z-score reference
experiment-notes: PSAC antagonists in infected red cells, primary screen, cell-based, P. falciparum Indochina, OD700, 2 h (AID 1155);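 also: lysis reports solute entry through the parasite surface anion channel PSAC; channel blockers reduce lysis of infected cells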
test-parameters: P. falciparum Indochina infected erythrocytes, osmotic lysis OD700; higher = more signal, called active from +8 up or from −8 down
Activity calls are given as the source filed them.

Completed entries (count: 6):
compound=COCCOC(=O)N1C(=O)[C@@]2(c3cc(C#CCNC(N)=O)ccc31)[C@H](c1ccc(O)cc1)N1[C@H](c3ccccc3)[C@H](c3ccccc3)OC(=O)[C@H]1[C@@H]2C(N)=O measure=z-score result="0.783 (inactive)"
compound=[N-]=[N+]=NCc1ccccc1[C@@H]1OC(c2ccc(OCCCO)cc2)=N[C@]1(Cc1ccccc1N=[N+]=[N-])C(=O)NCCN1CCOCC1 measure=z-score result="2.41 (inactive)"
compound="CCCCCCCCCCC(O)C1C=CC2C(=O)N(C)C(=O)C2N1Nc1cc(OC)c(OC)c(OC)c1 (stereo unspecified)" measure=z-score result="3.42 (inactive)"
compound=[N-]=[N+]=Nc1ccccc1C[C@]1(C(=O)O)N=C(c2ccc(OCCCO)cc2)O[C@H]1c1ccccc1 measure=z-score result="2.83 (inactive)"
compound=COC(=O)[C@@]1(Cc2ccc(F)cc2)[C@H]2c3cc(C(=O)N(C)C)n(Cc4ccc(O)c(OC)c4)c3C[C@H]2CN1C(=O)c1ccccc1 measure=z-score result="-0.164 (inactive)"
compound=C=C[C@@H](C)[C@@H](OC(=O)Nc1ccc(SC)cc1)c1ccc(OCCO)cc1 measure=z-score result="20.2 (active)"

Query: z-score; subject: `C#C[C@@H](CC)O[Si](C#CCCCC#N)(C(C)C)C(C)C`
1.14 (inactive)

Moving on to the next compound: CS(=O)(=O)CCOC(=O)C1=CC(CCCO)=CC(C2CC2)N(Cc2cccc(OC(F)(F)F)c2)C=C1C(=O)OCCS(C)(=O)=O (stereo unspecified)
0.404 (inactive)

Moving on to the next compound: `Nc1cc(Br)ccc1C(=O)O`
0.371 (inactive)

Moving on to the next compound: `CC(C)(C)OC(=O)CC[C@]12N=C(c3ccc(OCCCO)cc3)O[C@H]1c1ccccc1N(Cc1ccccc1)C2=O`
28.2 (active)

Moving on to the next compound: `COCCOC(=O)N1C(=O)[C@@]2(c3cc(C#CCC(C(=O)OC)C(=O)OC)ccc31)[C@H](c1ccc(O)cc1)N1[C@H](c3ccccc3)[C@H](c3ccccc3)OC(=O)[C@H]1[C@@H]2C(=O)NC[C@H](O)c1ccccc1`
0.223 (inactive)

Moving on to the next compound: `[N-]=[N+]=NCc1ccccc1C[C@@]1(C(=O)N2CCCCC2)N=C(c2ccc(OCCCO)cc2)O[C@@H]1c1ccccc1CN=[N+]=[N-]`
19.6 (active)

Moving on to the next compound: CC(C)C[C@@H]1NC(=O)CNC(=O)[C@@]23C(=O)N[C@@H](Cc4ccccc4)C2[C@H](C)[C@@]2(C)O[C@H]2C3/C=C/C/C=C\CNC1=O (stereo partly specified)
-0.262 (inactive)

Moving on to the next compound: `O=C1[C@@H]2[C@@H](CC(COc3ccccc3)=C3[C@@H](CCc4ccccc4)OB(O)C[C@@H]32)C(=O)N1Cc1ccccc1`
2.04 (inactive)

Moving on to the next compound: COc1cc(NN2C(C(O)C3CCCCC3)C=CC3C(=O)N(c4ccccc4)C(=O)C32)cc(OC)c1OC (stereo unspecified)
-0.35 (inactive)

Moving on to the next compound: CC1(C)C(=O)C(c2ccccc2)=C2CN3C(=O)N(CCc4ccccc4)C(=O)C3(Cc3ccc(C(F)(F)F)cc3)C=C21 (stereo unspecified)
0.316 (inactive)

Moving on to the next compound: `C=C(COC)C(=O)CC[C@H](OC(C)=O)c1ccc(OCCO)cc1`
-1.68 (inactive)
